Hi there, I'd appreciate the recorded IC50 for every entry that follows.
Test system: MT4
Assay: Cellular toxic effect was determined in MT-4 cells
Type: functional, cell-based
Conditions: Homo sapiens
Answers are plain numbers, in µg/mL.

| compound | recorded.endpoint | scale.unit | number |
| --- | --- | --- | --- |
| COC1=C(OC)/C(=C/COP(=O)(O)COCCn2cnc3c(O)nc(N)nc32)OC1=O | IC50 | µg/mL | 14 |
| Nc1ncnc2c1ncn2[C@@H]1O[C@H](COP(=O)(O)O)[C@@H](OP(=O)(O)COCCn2cnc3ncnc(N)c32)[C@H]1O | IC50 | µg/mL | 298 |
| Nc1ncnc2c1ncn2CCOCP(=O)(O)O [ADEFOVIR] | IC50 | µg/mL | 274 |
| COC1=C(OC)/C(=C/COP(=O)(O)COCCn2cnc3c(N)ncnc32)OC1=O | IC50 | µg/mL | 265 |

Switching to the query record.
Prompt: Hello, I am looking for reported IC50 with MT4 for Nc1nc2c(ncn2CCOCP(=O)(O)O)c(=O)[nH]1 [GS-438] . Could you help?
Response: 16
